// data source = patent US5594022A

- measured.on: NK1 receptor (Cavia porcellus, UniProt P30547)
- Construct: guinea pig cerebral cortex membranes; from tissue; host or cells: guinea pig cerebral cortex membranes
- Sequence (P30547 whole entry): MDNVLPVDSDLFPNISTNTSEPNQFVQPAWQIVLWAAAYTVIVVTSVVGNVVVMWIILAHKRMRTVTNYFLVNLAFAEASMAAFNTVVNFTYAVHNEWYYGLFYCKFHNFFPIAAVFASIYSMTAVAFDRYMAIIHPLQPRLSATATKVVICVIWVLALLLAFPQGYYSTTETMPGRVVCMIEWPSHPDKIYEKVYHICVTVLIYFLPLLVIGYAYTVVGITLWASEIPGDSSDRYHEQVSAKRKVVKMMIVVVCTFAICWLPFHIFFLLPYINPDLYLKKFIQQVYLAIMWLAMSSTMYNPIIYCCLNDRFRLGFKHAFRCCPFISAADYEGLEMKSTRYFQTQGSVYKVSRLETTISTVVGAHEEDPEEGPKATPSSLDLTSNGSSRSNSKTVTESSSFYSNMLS
- protocol.text: In vitro NK1 receptor binding ([125I] Bolton Hunter Substance-P, guinea pig cerebral cortex membranes)
- reported.conditions: [125I-BH]Substance-P 0.1 nM, read-out: Binding IC50, In Vitro NK1 Receptor Binding
experimental.readout: pIC50
The read-out pIC50 is expressed as -log10 of concentration in moles per litre.

Example entries and their recorded answers appear below.
| compound | experimental.readout | observed.value |
| --- | --- | --- |
| CN(C(=O)OCc1ccccc1)[C@@H](Cc1c[nH]c2ccccc12)C(=O)NCc1ccccc1 | pIC50 | 6.77 |
| CC(NC(=O)C(Cc1cn(C)c2ccccc12)NC(=O)OCc1ccccc1)c1ccccc1 (stereo not shown) | pIC50 | 5.47 |

pIC50 for C[C@H](NC(=O)[C@@](C)(Cc1c[nH]c2ccccc12)NC(=O)OC1Cc2ccccc2C1)c1ccccc1 ?
6.96

----------
- measured.on: NK1 receptor (Guinea Pig Ileum) (Cavia porcellus, UniProt P30547)
- Construct: Ileum; from tissue; host or cells: guinea pig ileum
- Sequence (P30547 whole entry): as above
- protocol.text: NK1 antagonist activity, guinea pig ileum
- reported.conditions: read-out: NK1 Antagonist Activity pkB/pA2, Guinea Pig Ileum (converted)
experimental.readout: Kb
Phrase the answer as number then unit, nothing more needed.

| compound | Kb |
| --- | --- |
| CN(Cc1ccccc1)C(=O)[C@H](Cc1c[nH]c2ccccc12)NC(=O)OCc1cc2ccccc2o1 [Example 67] | 12.6 nM |
| C[C@H](NC(=O)[C@@](C)(Cc1c[nH]c2ccccc12)NC(=O)OCc1ccccc1)c1ccccc1 [Example 15] | 15.8 nM |
| Cc1ccc(COC(=O)N[C@](C)(Cc2c[nH]c3ccccc23)C(=O)N[C@@H](C)c2ccccc2)cc1 [Example 22] | 15.8 nM |
| C[C@H](NC(=O)[C@@](C)(Cc1c[nH]c2ccccc12)NC(=O)OCc1ccccc1F)c1ccccc1 [Example 47] | 3.98 nM |

Consider the compound C[C@H](NC(=O)[C@@](C)(Cc1c[nH]c2ccccc12)NC(=O)OCc1ccc(F)cc1F)c1ccccc1 [Example 53] and give its measured Kb.
2.51 nM

----------
- measured.on: NK1 receptor (Cavia porcellus, UniProt P30547)
- Construct: guinea pig cerebral cortex membranes; from tissue; host or cells: guinea pig cerebral cortex membranes
- protocol.text: In vitro NK1 receptor binding ([125I] Bolton Hunter Substance-P, guinea pig cerebral cortex membranes)
- reported.conditions: [125I-BH]Substance-P 0.1 nM, read-out: Binding IC50, In Vitro NK1 Receptor Binding
- Description: The compounds of the invention were also evaluated in three tachykinin binding assays.
experimental.readout: IC50 (nM)
The reply should be a number in nM, with the unit left off.

| compound | measured.on | experimental.readout | observed.value |
| --- | --- | --- | --- |
| C[C@H](NC(=O)[C@@H](Cc1c[nH]c2ccccc12)NC(=O)OCc1ccccc1)c1ccccc1 [Example 6] | NK1 receptor (Cavia porcellus, UniProt P30547) | IC50 | 75 |
| C[C@H](NC(=O)[C@@](C)(Cc1c[nH]c2ccccc12)NC(=O)OCc1cccs1)c1ccccc1 [Example 43] | NK1 receptor (Cavia porcellus, UniProt P30547) | IC50 | 100 |
| C[C@H](NC(=O)[C@@](C)(Cc1c[nH]c2ccccc12)NC(=O)OCc1cccc(F)c1F)c1ccccc1 [Example 52] | NK1 receptor (Cavia porcellus, UniProt P30547) | IC50 | 49 |
| C[C@H](NC(=O)[C@@](C)(Cc1c[nH]c2ccccc12)NC(=O)OCc1ccc(F)cc1)c1ccccc1 [Example 51] | NK1 receptor (Cavia porcellus, UniProt P30547) | IC50 | 230 |
| Cc1ccc(C(C)NC(=O)[C@@](C)(Cc2c[nH]c3ccccc23)NC(=O)OCc2ccccc2)cc1 (single isomer, unassigned) [Example 36] | NK1 receptor (Cavia porcellus, UniProt P30547) | IC50 | 70 |
| C[C@H](NC(=O)[C@H](Cc1c[nH]c2ccccc12)N(C)C(=O)OCc1ccccc1)c1ccccc1 [Example 24] | NK1 receptor (Cavia porcellus, UniProt P30547) | IC50 | 185 |

Any idea what its IC50 is? The compound is C[C@H](NC(=O)[C@@](C)(Cc1c[nH]c2ccccc12)NC(=O)OCc1ccoc1)c1ccccc1 [Example 48]
230

Fill blank: measured IC50 of the compound CC(NC(=O)[C@@](C)(Cc1c[nH]c2ccccc12)NC(=O)OCc1ccccc1)c1cc(C(F)(F)F)cc(C(F)(F)F)c1 (mixture of isomers) [Example 39] is ____.
10000

----------
- measured.on: NK1 receptor (Guinea Pig Trachea) (Cavia porcellus, UniProt P30547)
- Construct: Trachea; from tissue; host or cells: guinea pig trachea
- Sequence (P30547 whole entry): as above
- protocol.text: NK1 antagonist activity, guinea pig trachea
- reported.conditions: read-out: NK1 Antagonist Activity pkB/pA2, Guinea Pig Trachea (converted)
This listing pairs compounds with measured Kb.
Express your answer in nM, writing the number without its unit.

Known results for compounds:
| test.smiles | measured.on | result.units | Kb |
| --- | --- | --- | --- |
| Cc1ccc(COC(=O)N[C@](C)(Cc2c[nH]c3ccccc23)C(=O)N[C@@H](C)c2ccccc2)cc1 | NK1 receptor (Guinea Pig Trachea) (Cavia porcellus, UniProt P30547) | nM | 100 |
| C[C@H](NC(=O)[C@@](C)(Cc1c[nH]c2ccccc12)NC(=O)OCc1ccc(F)cc1F)c1ccccc1 | NK1 receptor (Guinea Pig Trachea) (Cavia porcellus, UniProt P30547) | nM | 7.94 |
| C[C@H](NC(=O)[C@@](C)(Cc1c[nH]c2ccccc12)NC(=O)OCc1ccccc1)c1ccccc1 | NK1 receptor (Guinea Pig Trachea) (Cavia porcellus, UniProt P30547) | nM | 39.8 |

# input for lookup
Fill in: Kb of C[C@H](NC(=O)[C@@](C)(Cc1c[nH]c2ccccc12)NC(=O)OCc1ccccc1F)c1ccccc1 is ___
50.1

----------
- measured.on: NK1 receptor (Cavia porcellus)
- Construct: guinea pig cerebral cortex membranes; from tissue; host or cells: guinea pig cerebral cortex membranes
- protocol.text: In vitro NK1 receptor binding ([125I] Bolton Hunter Substance-P, guinea pig cerebral cortex membranes)
- reported.conditions: Binding IC50, In Vitro NK1 Receptor Binding, [125I-BH]Substance-P 0.1 nM
Reported IC50 is given for each of the following compounds.
All answers are understood in µM, so give the number only.

Examples with answers:
| test.smiles | IC50, µM |
| --- | --- |
| C[C@H](NC(=O)[C@@](C)(Cc1c[nH]c2ccccc12)NC(=O)OCc1ccc(F)cc1F)c1ccccc1 | 0.039 |
| C[C@H](NC(=O)[C@@](C)(Cc1c[nH]c2ccccc12)NC(=O)OCc1ccccc1)c1ccccc1 | 0.036 |
| Cc1ccc(COC(=O)N[C@](C)(Cc2c[nH]c3ccccc23)C(=O)N[C@@H](C)c2ccccc2)cc1 | 0.017 |

Look at this compound and give its reported IC50. C[C@H](NC(=O)[C@@](C)(Cc1c[nH]c2ccccc12)NC(=O)OCc1ccccc1F)c1ccccc1
0.01

Sample C[C@H](NC(=O)[C@](C)(Cc1c[nH]c2ccccc12)NC(=O)OCc1ccccc1)c1ccccc1 — what was its IC50?
0.702

----------
- measured.on: NK1 receptor (Cavia porcellus, UniProt P30547)
- Construct: guinea pig cerebral cortex membranes; from tissue; host or cells: guinea pig cerebral cortex membranes
- protocol.text: In vitro NK1 receptor binding ([125I] Bolton Hunter Substance-P, guinea pig cerebral cortex membranes)
- reported.conditions: [125I-BH]Substance-P 0.1 nM, read-out: Binding IC50, In Vitro NK1 Receptor Binding
Entries whose IC50 is below 200 nM take Met; entries at or above 200 nM take Not met.

| compound | discrete.label |
| --- | --- |
| CN(Cc1ccccc1)C(=O)C(Cc1c[nH]c2ccccc12)NC(=O)OCc1ccccc1 (stereo not drawn) [Example 1] | Not met |
| CN(Cc1ccccc1)C(=O)[C@H](Cc1c[nH]c2ccccc12)NC(=O)OCc1ccccc1 [Example 3] | Not met |
| Cc1ccc(C(C)NC(=O)[C@@](C)(Cc2c[nH]c3ccccc23)NC(=O)OCc2ccccc2)cc1 (single isomer, unassigned) [Example 37] | Not met |

Strictly below 200 nM: is that where IC50 of C[C@H](NC(=O)[C@@](C)(Cc1c[nH]c2ccccc12)NC(=O)OC1CCc2ccccc21)c1ccccc1 (stereo partly drawn) [Example 44] sits?
Met

# TODO verify IC50 < 200 nM strictly for this compound: COc1ccc(C(C)NC(=O)[C@@](C)(Cc2c[nH]c3ccccc23)NC(=O)OCc2ccccc2)cc1 (stereo partly drawn) [Example 40]
Not met

Confirm or reject: IC50 of C[C@H](NC(=O)[C@H](Cc1c[nH]c2ccccc12)NC(=O)OCc1ccccc1)c1ccccc1 [Example 7] lies strictly below 200 nM
Not met

Is IC50 strictly under 200 nM for the entry C[C@H](NC(=O)C(C)(Cc1csc2ccccc12)NC(=O)OCc1ccccc1)c1ccccc1 (stereo partly drawn) [Example 60] ?
Not met

Does this compound meet the criterion IC50 < 200 nM? C[C@H](NC(=O)C(Cc1c[nH]c2ccc(F)cc12)NC(=O)OCc1ccccc1)c1ccccc1 (stereo partly drawn) [Example 56]
Not met
